Assay: chemical genetic growth profiling, strain panel (AID 1159580);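 also: tested at 20 µM; growth read once vehicle control cultures reached saturation at 30 °C; 1 = growth at the plate median or of vehicle wells; lower values mean less growth of the strain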
Conditions: S. cerevisiae deletion strains, growth OD, locus YNL271C, strain bni1
Out of some 5,500 compounds screened, about 2,000 (36%) were called active. Inconclusive results (about 18%) are left out. Rule as the data show it: active = normalized growth mostly below about 0.91 (no sharp cut-off); inconclusive = no clear call, values can overlap the other calls; inactive = mostly above about 0.92. Some of the results follow.
Allowed answers: active, inactive

Q) Status in this test for C=CC(C1=CC(=O)C(OC)=CC1=O)c1ccccc1 (configuration not stated) ?
A) inactive

Q) Queued: CN1C(CC(=O)c2ccccc2)CCCC1CC(O)c1ccccc1 (configuration not stated)
A) inactive

Q) Queued: CC(C)N(C(=O)SCC(Cl)=C(Cl)Cl)C(C)C
A) inactive

Q) Queued: C=CC(C1=CC(=O)C(OC)=CC1=O)c1ccc(O)cc1 (configuration not stated)
A) inactive

Q) Queued: NCCCC[C@H](N[C@@H](CCc1ccccc1)C(=O)O)C(=O)N1CCC[C@H]1C(=O)O
A) inactive

Q) Queued: CCN(CC)CCNC(=O)c1cc(S(C)(=O)=O)ccc1OC
A) inactive

Q) Queued: C/C=C/c1ccc2c(c1)OCO2
A) inactive

Q) Queued: C=CC(C1=CC(=O)C=CC1=O)c1ccccc1 (configuration not stated)
A) inactive

Q) Queued: COc1cc2c(c(OC)c1OC)-c1ccc(OC)c(=O)cc1[C@@H](NC(C)=O)CC2
A) inactive

Q) Queued: Cc1ccsc1/C=C/C1=NCCCN1C
A) inactive

Q) Queued: CCCC(C)C1(CC)C(=O)N=C(S)NC1=O (configuration not stated)
A) active

Q) Queued: Cc1ccc2cc3c(ccc4ccccc43)c3c2c1CC3
A) inactive

* * *

Assay: chemical genetic growth profiling, strain panel (AID 1159580);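 also: tested at 20 µM; growth read once vehicle control cultures reached saturation at 30 °C; 1 = growth at the plate median or of vehicle wells; lower values mean less growth of the strain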
Details: S. cerevisiae deletion strains, growth OD, locus YER167W, strain BCK2, stronger effect = lower value
In all, about 5,500 compounds went through this assay and about 2,000 (36%) were called active. Roughly 18% stayed inconclusive and do not appear here. The list shows a part of the results.
Rule: measured normalized growth below 1 gets true (1); anything equal to or greater than 1 gets false (0).

Q) Regarding CC(=O)O[C@@H]1CC2C(C)(C)C=CC(=O)[C@]2(C)C2CC[C@@]3(C)[C@H](c4ccoc4)OC(=O)C4OC43[C@@]21C (some centres undefined) , kindly confirm whether its normalized growth is beneath 1.
A) false (0)

Q) Queued: O=C(CCCCCCCCCCCCC1CCCC1)Nc1ccc(S(=O)(=O)c2ccc(NC(=O)CCCCCCCCCCCCC3CCCC3)cc2)cc1
A) false (0)

Q) Queued: Oc1c(Cl)cc(Cl)c2cccnc12
A) true (1)

Q) Queued: O=C1C=CC2=C3c4cc(O)c(O)cc4CC3(O)COC2=C1O (centres undefined)
A) false (0)

Q) Queued: CC(=O)O[C@@H]1C[C@@]2(C)[C@H](c3ccoc3)C[C@H]3O[C@]32[C@]2(C)C(=O)C(O)=C3C(C)(C)C(=O)C=C[C@]3(C)C12 (some centres undefined)
A) true (1)

Q) Queued: CCCc1occc(=O)c1/C=C/O
A) true (1)

Q) Queued: Oc1ccc(Cl)c2cccnc12
A) true (1)

* * *

Experiment: chemical genetic growth profiling, strain panel (AID 1159580);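 also: tested at 20 µM; growth read once vehicle control cultures reached saturation at 30 °C; 1 = growth at the plate median or of vehicle wells; lower values mean less growth of the strain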
Conditions: S. cerevisiae deletion strains, growth OD, locus YOL147C, strain pex11
In all, about 5,500 compounds went through this assay and about 2,000 (36%) were called active. Not shown: some 18% with an inconclusive outcome. Cut-off read from the data, not from the text of the source: active = normalized growth mostly below about 0.91 (no sharp cut-off); inconclusive = no clear call, values can overlap the other calls; inactive = mostly above about 0.92. Some of the results follow.
Allowed answers: yes (1) (active), no (0) (inactive)

Q) Status in this test for O=C1C=CC2=C3c4cc(O)c(O)cc4C[C@@]3(O)COC2=C1 ?
A) no (0)

Q) Queued: CC(=O)OC1CC(OC(C)=O)C2(C)C(CC(OC(C)=O)C3(C)C2CCC2(C)C(c4ccoc4)CC4OC423)C1(C)C (stereo not drawn)
A) no (0)

Q) Queued: O=C(OC1Cc2c(O)cc(O)cc2OC1c1cc(O)c(O)c(O)c1-c1c(C2Oc3cc(O)cc(O)c3CC2OC(=O)c2cc(O)c(O)c(O)c2)cc(O)c(O)c1O)c1cc(O)c(O)c(O)c1 (stereo not drawn)
A) no (0)

Q) Queued: O=C(O)c1ccccc1Nc1cccc(C(F)(F)F)c1
A) no (0)

Q) Queued: C/C=C/c1ccc2c(c1)OCO2
A) no (0)

Q) Queued: CC(=O)O[C@@H]1C[C@@]2(C)[C@H](c3ccoc3)C[C@H]3O[C@]32[C@]2(C)C(=O)C(O)=C3C(C)(C)C(=O)C=C[C@]3(C)C12 (stereo partly drawn)
A) yes (1)

Q) Queued: CC1(C)C(=O)C=C[C@@]2(C)C1=C(O)C(=O)[C@]1(C)C2CC[C@@]2(C)[C@H](c3ccoc3)C[C@H]3O[C@]321 (stereo partly drawn)
A) yes (1)

Q) Queued: O=C(O[C@@H]1Cc2c(O)cc(O)cc2O[C@@H]1c1cc(O)c(O)c(O)c1-c1c([C@H]2Oc3cc(O)cc(O)c3C[C@H]2O)cc(O)c(O)c1O)c1cc(O)c(O)c(O)c1
A) yes (1)
